// data source = the supplement of paper PMC10266784

B1: library; numbered along this chain (parent)
chain: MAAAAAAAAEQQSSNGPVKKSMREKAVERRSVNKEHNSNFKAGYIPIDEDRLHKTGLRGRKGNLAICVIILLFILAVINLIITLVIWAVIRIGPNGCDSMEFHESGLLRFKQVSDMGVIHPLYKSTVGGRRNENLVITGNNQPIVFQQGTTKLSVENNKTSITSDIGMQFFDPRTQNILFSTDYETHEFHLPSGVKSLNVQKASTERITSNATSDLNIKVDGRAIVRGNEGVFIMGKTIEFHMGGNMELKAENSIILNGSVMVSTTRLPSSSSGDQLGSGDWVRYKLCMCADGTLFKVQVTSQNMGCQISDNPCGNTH

# Variants of: B1
# experiment_notes: SGCB cell-surface expression functional score (HA stain, bin4 vs bin1, normalised to synonymous) (log10 ratio); higher = more cell-surface SGCB (functional)
Respond with Yes for SGCB cell-surface expression functional score (log10) values of -0.05 and above, No for values below.

Given the entry `M305Q` , answer whether its SGCB cell-surface expression functional score (log10) meets or surpasses -0.05.
No

Given the entry `D98T` , answer whether its SGCB cell-surface expression functional score (log10) meets or surpasses -0.05.
Yes

Given the entry `L295N` , answer whether its SGCB cell-surface expression functional score (log10) meets or surpasses -0.05.
No

Given the entry `L57W` , answer whether its SGCB cell-surface expression functional score (log10) meets or surpasses -0.05.
Yes

Given the entry `E28H` , answer whether its SGCB cell-surface expression functional score (log10) meets or surpasses -0.05.
No

Given the entry `T209I` , answer whether its SGCB cell-surface expression functional score (log10) meets or surpasses -0.05.
No

Given the entry `T238N` , answer whether its SGCB cell-surface expression functional score (log10) meets or surpasses -0.05.
Yes

Given the entry `Y44Q` , answer whether its SGCB cell-surface expression functional score (log10) meets or surpasses -0.05.
Yes

Given the entry `K196G` , answer whether its SGCB cell-surface expression functional score (log10) meets or surpasses -0.05.
No

Given the entry `R267C` , answer whether its SGCB cell-surface expression functional score (log10) meets or surpasses -0.05.
Yes

Given the entry `S105G` , answer whether its SGCB cell-surface expression functional score (log10) meets or surpasses -0.05.
No

Given the entry `S210Q` , answer whether its SGCB cell-surface expression functional score (log10) meets or surpasses -0.05.
No

Given the entry `E185T` , answer whether its SGCB cell-surface expression functional score (log10) meets or surpasses -0.05.
No

Given the entry `S154W` , answer whether its SGCB cell-surface expression functional score (log10) meets or surpasses -0.05.
No

Given the entry `T151C` , answer whether its SGCB cell-surface expression functional score (log10) meets or surpasses -0.05.
No

Given the entry `T186W` , answer whether its SGCB cell-surface expression functional score (log10) meets or surpasses -0.05.
No

Given the entry `T160V` , answer whether its SGCB cell-surface expression functional score (log10) meets or surpasses -0.05.
Yes

Given the entry `M262C` , answer whether its SGCB cell-surface expression functional score (log10) meets or surpasses -0.05.
Yes

Given the entry `T213I` , answer whether its SGCB cell-surface expression functional score (log10) meets or surpasses -0.05.
Yes

Given the entry `G96K` , answer whether its SGCB cell-surface expression functional score (log10) meets or surpasses -0.05.
No

Given the entry `E240P` , answer whether its SGCB cell-surface expression functional score (log10) meets or surpasses -0.05.
No
